Target: GST-Bcl-2ΔTM (wt) (UniProt P10415 1-219)
Sequence (P10415 1-219, stated change not applied): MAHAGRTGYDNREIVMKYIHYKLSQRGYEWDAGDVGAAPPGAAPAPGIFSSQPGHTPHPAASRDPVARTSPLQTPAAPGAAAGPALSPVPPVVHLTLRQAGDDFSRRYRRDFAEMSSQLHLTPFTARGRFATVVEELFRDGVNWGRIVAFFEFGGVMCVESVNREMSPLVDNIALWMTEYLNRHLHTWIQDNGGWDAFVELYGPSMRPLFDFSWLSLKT
Assay: SPR
observed_property: pKd
In simple prose, pKd is minus the logarithm base ten of a concentration in moles per litre.

Can you look up the measured pKd of RPEIWIAQELRRIGDEFNAYYARRVF [26-mer Bim BH3 peptide] for me?
8.15

Taken from paper PMC3910374.
